system: NMDA receptor; experiment: Maximum contraction of isolated guinea pig longitudinal ileum muscle preparations induced by L-Glu; details: concentration, unit not given; direct excitation of the preparation
Known excitation of a selection of compounds

COc1ccc(C(=O)CN2CCN(CC(=O)c3ccccc3)CC2)cc1	10^−5
O=C(c1ccc([N+](=O)[O-])cc1)N1CCN(CC(O)c2ccccc2)CC1 (stereo not drawn)	3 × 10^−5
O=C(CN1CCN(CC(=O)c2ccc([N+](=O)[O-])cc2)CC1)c1ccccc1	10^−5
CC(C(=O)c1ccccc1)N1CCN(C(C)C(=O)c2ccccc2)CC1 (stereo not drawn)	10^−5
N[C@@H](CCC(=O)O)C(=O)O [L-Glu, reference compound]	3.89 × 10^−5

Let us move to another entry and its excitation.
Ask: Need excitation of O=C(CN1CCN(C(=O)c2ccccc2)CC1)c1ccccc1 , thanks.
Reply: 3 × 10^−6

* * *

Below, each entry is listed alongside its reported Neurological deficit 24 h.
tested on: focal cerebral ischemia in rats; assay: Focal cerebral ischemia in rats by occlusion of middle cerebral artery (MCA); assay type: in vivo; conditions: 20 mg/kg p.o., 24 h after operation

Field: example entries. Status: answers known.
COc1ccc2cc(C(=O)C(C)N3CCN(CC(=O)NCc4ccccc4)CC3)ccc2c1Cl (centres unmarked) [IV-33]	8.4 ± 1.5
COc1ccc2cc(C(=O)C(C)N3CCN(CC(=O)c4ccccc4)CC3)ccc2c1Cl (centres unmarked) [IV-20]	8.8 ± 1.3

Ask: Which Neurological deficit 24 h reading was recorded for the compound COCCOC(=O)C1=C(C)NC(C)=C(C(=O)OC(C)C)C1c1cccc([N+](=O)[O-])c1 (centres unmarked) [Nimodipine, reference compound] ?
Reply: 9.0 ± 4.1

Ask: What value of measured Neurological deficit 24 h is listed for O=C(CN1CCN(S(=O)(=O)Cc2ccc(F)cc2F)CC1)c1ccccc1 [IV-22] ?
Reply: 7.4 ± 2.4

Ask: Look up Neurological deficit 24 h for this compound: O=C(CN1CCN(CC=Cc2ccccc2)CC1)NCc1ccccc1 [IV-21]
Reply: 6.8 ± 2.5

* * *

Catalogue of Prolonging the survival duration (%) values
test system: anoxia induced by sodium nitrite in mice; experiment: Anti-cerebral anoxia in mice, anoxia induced by sodium nitrite; format: in vivo; conditions: mice; sodium nitrite 225 mg/kg ip; compound 20 mg/kg sc
Write the number in % without appending the unit.

Previously resolved entries follow.
CC(C(=O)c1ccccc1)N1CCN(CC(=O)c2ccccc2)CC1 (centres unmarked)	21
CC(C(=O)c1ccccc1)N1CCN(C(=O)[C@@H](O)c2ccccc2)CC1 (some centres unmarked)	3
O=C(CN1CCN(CC(O)c2ccccc2)CC1)NCc1ccccc1 (centres unmarked)	13

Ask: Lab note: need Prolonging the survival duration (%) with anoxia induced by sodium nitrite in mice for entry COc1ccc2cc(C(=O)C(C)N3CCN(CC(=O)NC(C)c4ccccc4)CC3)ccc2c1Cl (centres unmarked) , please look it up.
Reply: 30

Ask: Write down the reported Prolonging the survival duration (%) of O=C(c1ccc([N+](=O)[O-])cc1)N1CCN(CC(O)c2ccccc2)CC1 (centres unmarked) , test system: anoxia induced by sodium nitrite in mice.
Reply: 42

* * *

assay: Acute toxicity; conditions: mouse, in vivo, po; mice; p.o.; read-out: LD50 (95% confidence limit)
Assay endpoint: LD50 (mg/kg)
Numeric only. Scale: mg/kg

Ask: Look up LD50 for this compound: O=C(CN1CCN(CC(=O)c2ccccc2)CC1)NCc1ccccc1
Reply: 856

* * *

test: Acute toxicity; conditions: mouse, in vivo, iv; mice; i.v.; read-out: LD50 (95% confidence limit)
Assay endpoint: LD50

Ask: Entry O=C(CN1CCN(CC(=O)c2ccccc2)CC1)NCc1ccccc1 has what LD50?
Reply: 133 mg/kg

* * *

Reported antagonism % (restrain rate of contraction of preparations) values are given for each entry in this list.
tested on: NMDA receptor; test: Maximum contraction of isolated guinea pig longitudinal ileum muscle preparations induced by L-Glu; conditions: compound 10^−5M; contraction induced by L-Glu
Provide the reading as a plain figure in %.

Worked cases, antagonism % (restrain rate of contraction of preparations) given:
O=C(CN1CCN(CC(=O)c2ccccc2)CC1)c1ccccc1 [IV-2, N^1,N^4-diphenacyl-piperazine]	25
O=C(CN1CCN(CC(=O)c2ccccc2)CC1)NCc1ccccc1 [IV-23]	40
O=C(CN1CCN(CC(=O)c2ccc(Cl)cc2)CC1)c1ccc(Cl)cc1 [IV-6, N^1,N^4-di (4-chlorophenacyl) piperazine]	25
CC(C(=O)c1ccccc1)N1CCN(CC(=O)c2ccccc2)CC1 (stereo not drawn) [IV-8]	25
O=C(CN1CCN(CC(=O)c2ccc(Cl)cc2)CC1)c1ccccc1 [IV-5]	30

Ask: Form field: antagonism % (restrain rate of contraction of preparations) recorded for O=C(c1ccccc1)N1CCN(CC(O)c2ccccc2)CC1 (stereo not drawn) [IV-34] with NMDA receptor (enter value)
Reply: 25

Ask: Reported antagonism % (restrain rate of contraction of preparations) for NMDA receptor, given O=C(CN1CCN(C(=O)c2ccc([N+](=O)[O-])cc2)CC1)c1ccccc1 [IV-3] ?
Reply: 37

Ask: Notebook entry, NMDA receptor assay: antagonism % (restrain rate of contraction of preparations) of O=C(CN1CCN(CC(=O)c2ccc3ccccc3c2)CC1)c1ccccc1 [IV-7] = ?
Reply: 25
